- STUDY SYSTEM: T1, human GPC3 on CHO-K1-human GPC3 cells (CHOK1-hGPC3.2B5) (human, UniProt P51654 25-554)
- T1 construct: whole, on cells
- EXPERIMENTAL PROTOCOL: FACS, CHOK1-hGPC3.2B5 cells;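 further: flow cytometry of humanized antibodies binding to the cells over one hour in the cold, read as cell mean fluorescence intensity, with EC50 obtained by curve fitting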
REPORTED PROPERTY: Max MFI (MFI)
Use MFI as the unit, but write only the number.

So what's the measured Max MFI for this one? hAb001H1L1b (antibody, human IgG1, V domains shown, Humanized F2.169.2; VH H1 + VL L1b; expressed as human IgG1) VH: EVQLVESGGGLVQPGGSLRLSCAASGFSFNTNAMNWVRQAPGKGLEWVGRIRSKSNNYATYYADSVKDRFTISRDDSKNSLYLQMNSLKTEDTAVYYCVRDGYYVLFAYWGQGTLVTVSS VL: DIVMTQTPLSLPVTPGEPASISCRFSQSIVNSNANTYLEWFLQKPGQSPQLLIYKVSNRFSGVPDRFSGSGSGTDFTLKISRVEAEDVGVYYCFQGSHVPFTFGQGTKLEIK 3160

Could you do the same for hAb001H2L1b (antibody, human IgG1, V domains shown, Humanized F2.169.2; VH H2 + VL L1b; expressed as human IgG1) VH: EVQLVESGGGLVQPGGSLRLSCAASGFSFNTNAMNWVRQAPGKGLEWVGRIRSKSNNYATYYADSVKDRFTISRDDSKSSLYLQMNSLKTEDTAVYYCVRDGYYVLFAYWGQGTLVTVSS VL: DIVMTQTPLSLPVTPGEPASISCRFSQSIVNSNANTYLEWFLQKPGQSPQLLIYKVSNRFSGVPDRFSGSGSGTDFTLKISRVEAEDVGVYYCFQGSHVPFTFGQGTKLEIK , please? 3370

Could you do the same for hAb005LH2L1a (antibody, human IgG1, V domains shown, Humanized F3.54.12; VH H2 + VL L1a; expressed as human IgG1) VH: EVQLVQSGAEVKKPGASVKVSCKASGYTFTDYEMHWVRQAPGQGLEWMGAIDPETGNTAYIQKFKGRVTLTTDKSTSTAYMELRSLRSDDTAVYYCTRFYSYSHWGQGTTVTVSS VL: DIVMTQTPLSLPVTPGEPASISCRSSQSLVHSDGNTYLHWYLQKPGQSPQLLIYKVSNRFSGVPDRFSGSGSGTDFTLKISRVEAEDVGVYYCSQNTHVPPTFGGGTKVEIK , please? 153
